- Test system: A2780
- Recorded conditions: human
Give pIC50 for every item shown.
Numbers only, as −log10 of the molar value.

| Compound | pIC50 |
| --- | --- |
| O=C(CCl)N[C@@H](Cc1ccccc1)C(=O)N1C/C(=C\c2ccc([N+](=O)[O-])cc2)C(=O)/C(=C/c2ccc([N+](=O)[O-])cc2)C1 [RA375] | 7.43 |

Kindly consider the entry below.
Looking up `C[C@H]1/C(=C\c2ccc([N+](=O)[O-])cc2)C(=O)/C(=C/c2ccc([N+](=O)[O-])cc2)CN1C(=O)[C@@H](N)Cc1ccccc1` , I found its pIC50 recorded as 7.70

---

- Tested on: TC1-Lu
- Method notes: MTT cytotoxicity assay, TC1-Lu
- Recorded conditions: read-out: cytotoxicity IC50 TC1-Lu; Tables 3A/4B/4C; MTT assay
Recorded metric: IC50 (µM)
Numbers only, in µM.

response.value for C[C@@H]1/C(=C\c2ccc([N+](=O)[O-])cc2)C(=O)/C(=C/c2ccc([N+](=O)[O-])cc2)CN1C(=O)[C@@H](N)Cc1ccccc1 [RA413R] (field: IC50) = 1.79

---

- Tested on: T22
- Method notes: MTT cytotoxicity assay, T22
- Recorded conditions: read-out: cytotoxicity IC50 T22, Tables 3A/4B/4C, BRCA2 + VE
For each entry below, report its pIC50 value.
Numbers only, as −log10 of the molar value.

| Compound | Tgt | pIC50 |
| --- | --- | --- |
| N[C@@H](Cc1ccccc1)C(=O)N1C/C(=C\c2ccc(Cl)c(Cl)c2)C(=O)/C(=C/c2ccc(Cl)c(Cl)c2)C1 [RA190, reference compound] | T22 | 4.79 |

Reported pIC50 for `C[C@H]1/C(=C\c2ccc([N+](=O)[O-])cc2)C(=O)/C(=C/c2ccc([N+](=O)[O-])cc2)CN1C(=O)[C@@H](N)Cc1ccccc1` was 5.87

---

- System: C33A
- Method notes: MTT cytotoxicity assay, C33A
- Format: cell-based
- Recorded conditions: Homo sapiens, C-33-A, Table 3, 48 hr, Cervical (HPV −ve)
Recorded metric: pIC50
Numbers only, as −log10 of the molar value.

Entry under test: `O=C(CCl)N[C@@H](Cc1ccccc1)C(=O)N1C/C(=C\c2ccc([N+](=O)[O-])cc2)C(=O)/C(=C/c2ccc([N+](=O)[O-])cc2)C1` . Its pIC50 was 6.78

---

Assign pIC50 to each entry below.
- System: MCF7
- Method notes: MTT cytotoxicity assay, MCF7
- Recorded conditions: read-out: cytotoxicity IC50 MCF7, Tables 3A/4B/4C
Answers are plain numbers, as −log10 of the molar value.

A selection of reference data follows.
| Compound | Experimental result |
| --- | --- |
| CC1/C(=C\c2ccc(F)cc2)C(=O)/C(=C/c2ccc(F)cc2)CN1C(=O)[C@@H](N)Cc1ccccc1 (mixture of isomers) [RA462] | 6.12 |
| N[C@@H](Cc1ccccc1)C(=O)N1C/C(=C\c2ccc(Cl)c(Cl)c2)C(=O)/C(=C/c2ccc(Cl)c(Cl)c2)C1 [RA190, reference compound] | 6.12 |
| CC1/C(=C\c2ccc([N+](=O)[O-])cc2)C(=O)/C(=C/c2ccc([N+](=O)[O-])cc2)CN1C(=O)[C@H](Cc1ccccc1)NC(=O)CCl (stereo partly shown) [RA414] | 7.12 |

Would you kindly look at the next entry?
Kindly note the recorded pIC50 for CC1/C(=C\c2ccccc2F)C(=O)/C(=C/c2ccccc2F)CN1C(=O)[C@@H](N)Cc1ccccc1 (mixture of isomers) [RA467] , which is 6.12

---

- Tested on: HS578T
- Recorded conditions: human
Recorded metric: pIC50
Give bare numbers, as −log10 of the molar value.

Simply: `C[C@H]1/C(=C\c2ccc([N+](=O)[O-])cc2)C(=O)/C(=C/c2ccc([N+](=O)[O-])cc2)CN1C(=O)[C@@H](N)Cc1ccccc1` , HS578T, pIC50 = 7.40

---

- Method notes: MTT cytotoxicity assay, RPE1
- Recorded conditions: human
Recorded metric: IC50

Value of IC50 reported for the molecule CC1/C(=C\c2ccc([N+](=O)[O-])cc2)C(=O)/C(=C/c2ccc([N+](=O)[O-])cc2)CN1C(=O)[C@H](Cc1ccccc1)NC(=O)CCl (stereo partly shown) [RA414] is < 40 nM

---

- Tested on: JHU11
- Method notes: MTT cytotoxicity assay, JHU11
- Type: cell-based
- Recorded conditions: Table 3, 48 hr, Head & Neck (HPV −ve)
Recorded metric: pIC50
Give bare numbers, as −log10 of the molar value.

Consider O=C(CCl)N[C@@H](Cc1ccccc1)C(=O)N1C/C(=C\c2ccc([N+](=O)[O-])cc2)C(=O)/C(=C/c2ccc([N+](=O)[O-])cc2)C1 [RA375] . Its measured pIC50 is 6.75

---

- System: FaDu
- Method notes: cells
- Recorded conditions: Homo sapiens, read-out: cytotoxicity IC50 FaDu
Recorded metric: IC50 (nM)
Give bare numbers, in nM.

Worked set:
| Molecule | Experimental result |
| --- | --- |
| N[C@@H](Cc1ccccc1)C(=O)N1C/C(=C\c2ccc(Cl)c(Cl)c2)C(=O)/C(=C/c2ccc(Cl)c(Cl)c2)C1 [RA190, reference compound] | 300 |
| N[C@@H](Cc1ccccc1)C(=O)N1C/C(=C\c2ccc([N+](=O)[O-])cc2)C(=O)/C(=C/c2ccc([N+](=O)[O-])cc2)C1 [RA183, reference compound] | 150 |
| CC1/C(=C\c2ccc([N+](=O)[O-])cc2)C(=O)/C(=C/c2ccc([N+](=O)[O-])cc2)CN1C(=O)[C@@H](N)Cc1ccccc1 (mixture of isomers) [RA413] | 300 |

Record IC50 for all entries; do not skip any.
1. CC1/C(=C\c2ccc([N+](=O)[O-])cc2)C(=O)/C(=C/c2ccc([N+](=O)[O-])cc2)CN1C(=O)[C@H](Cc1ccccc1)NC(=O)CCl (some centres unmarked) [RA414]
2. C[C@H]1/C(=C\c2ccc([N+](=O)[O-])cc2)C(=O)/C(=C/c2ccc([N+](=O)[O-])cc2)CN1C(=O)[C@@H](N)Cc1ccccc1

Outgoing:
1: 78; 2: 78

---

- Test system: ID8-vegf
- Recorded conditions: mouse
Recorded metric: pIC50
Answers are plain numbers, as −log10 of the molar value.

Record `O=C(CCl)N[C@@H](Cc1ccccc1)C(=O)N1C/C(=C\c2ccc([N+](=O)[O-])cc2)C(=O)/C(=C/c2ccc([N+](=O)[O-])cc2)C1` . Reported pIC50: 7.36

---

Provide the reported pIC50 of each item.
- Test system: VU93
- Method notes: MTT cytotoxicity assay, VU93
- Recorded conditions: read-out: cytotoxicity IC50 VU93, Tables 3A/4B/4C
Give bare numbers, as −log10 of the molar value.

Known pIC50 results, listed for orientation:
| Compound | pIC50 |
| --- | --- |
| N[C@@H](Cc1ccccc1)C(=O)N1C/C(=C\c2ccc(Cl)c(Cl)c2)C(=O)/C(=C/c2ccc(Cl)c(Cl)c2)C1 [RA190, reference compound] | 6.20 |
| O=C(c1cc(Cc2n[nH]c(=O)c3ccccc23)ccc1F)N1CCN(C(=O)C2CC2)CC1 [OLA, olaparib, reference compound] | 7.52 |

Turning to the following compound.
Fill in: VU93 pIC50 for CC1/C(=C\c2ccc([N+](=O)[O-])cc2)C(=O)/C(=C/c2ccc([N+](=O)[O-])cc2)CN1C(=O)[C@H](Cc1ccccc1)NC(=O)CCl (stereo partly drawn) [RA414] = 7.40

---

- Tested on: Mouse Skin Keratinocytes
- Method notes: MTT cytotoxicity assay, mouse skin keratinocytes
- Assay type: cell-based
- Recorded conditions: Keratinocyte; Table 3; MTT, 48 hr; normal Mouse Skin; read-out: IC50 Keratinocytes
pIC50: −log10 of the molar value.
I'd be grateful if you could share measured pIC50 for these entries.

| Molecule | pIC50 |
| --- | --- |
| CC(C)C[C@H](NC(=O)[C@H](Cc1ccccc1)NC(=O)c1cnccn1)B(O)O [Bortezomib, bortezomib, reference compound] | < 7.00 |

// moving on: another record for pIC50
get_value(item= N[C@@H](Cc1ccccc1)C(=O)N1C/C(=C\c2ccc(Cl)c(Cl)c2)C(=O)/C(=C/c2ccc(Cl)c(Cl)c2)C1 [RA190, reference compound] , readout=pIC50) returns < 6.00

---

- Test system: DLD-BRCA2-Ve
- Method notes: MTT cytotoxicity assay, DLD-BRCA2-Ve
- Recorded conditions: read-out: cytotoxicity IC50 DLD-BRCA2-Ve
Recorded metric: IC50 (nM)
Answers are plain numbers, in nM.

Worked cases, IC50 given:
| Compound | Readout unit | IC50 |
| --- | --- | --- |
| CC1/C(=C\c2ccccc2F)C(=O)/C(=C/c2ccccc2F)CN1C(=O)[C@@H](N)Cc1ccccc1 (mixture of isomers) | nM | 502 |
| O=C(CCl)N[C@@H](Cc1ccccc1)C(=O)N1C/C(=C\c2ccc([N+](=O)[O-])cc2)C(=O)/C(=C/c2ccc([N+](=O)[O-])cc2)C1 | nM | 18 |

// each compound listed below needs its IC50
1. O=C(c1cc(Cc2n[nH]c(=O)c3ccccc23)ccc1F)N1CCN(C(=O)C2CC2)CC1 [OLA, olaparib, reference compound]
2. C[C@H]1/C(=C\c2ccc([N+](=O)[O-])cc2)C(=O)/C(=C/c2ccc([N+](=O)[O-])cc2)CN1C(=O)[C@@H](N)Cc1ccccc1

Outgoing:
[2.5, 55]
